- target.under.test: human integrin αvβ3 (human, UniProt P06756 31-992; P05106 27-718, limits assumed)
- Sequence (P06756 31-992 limits assumed, chain 1 of 2): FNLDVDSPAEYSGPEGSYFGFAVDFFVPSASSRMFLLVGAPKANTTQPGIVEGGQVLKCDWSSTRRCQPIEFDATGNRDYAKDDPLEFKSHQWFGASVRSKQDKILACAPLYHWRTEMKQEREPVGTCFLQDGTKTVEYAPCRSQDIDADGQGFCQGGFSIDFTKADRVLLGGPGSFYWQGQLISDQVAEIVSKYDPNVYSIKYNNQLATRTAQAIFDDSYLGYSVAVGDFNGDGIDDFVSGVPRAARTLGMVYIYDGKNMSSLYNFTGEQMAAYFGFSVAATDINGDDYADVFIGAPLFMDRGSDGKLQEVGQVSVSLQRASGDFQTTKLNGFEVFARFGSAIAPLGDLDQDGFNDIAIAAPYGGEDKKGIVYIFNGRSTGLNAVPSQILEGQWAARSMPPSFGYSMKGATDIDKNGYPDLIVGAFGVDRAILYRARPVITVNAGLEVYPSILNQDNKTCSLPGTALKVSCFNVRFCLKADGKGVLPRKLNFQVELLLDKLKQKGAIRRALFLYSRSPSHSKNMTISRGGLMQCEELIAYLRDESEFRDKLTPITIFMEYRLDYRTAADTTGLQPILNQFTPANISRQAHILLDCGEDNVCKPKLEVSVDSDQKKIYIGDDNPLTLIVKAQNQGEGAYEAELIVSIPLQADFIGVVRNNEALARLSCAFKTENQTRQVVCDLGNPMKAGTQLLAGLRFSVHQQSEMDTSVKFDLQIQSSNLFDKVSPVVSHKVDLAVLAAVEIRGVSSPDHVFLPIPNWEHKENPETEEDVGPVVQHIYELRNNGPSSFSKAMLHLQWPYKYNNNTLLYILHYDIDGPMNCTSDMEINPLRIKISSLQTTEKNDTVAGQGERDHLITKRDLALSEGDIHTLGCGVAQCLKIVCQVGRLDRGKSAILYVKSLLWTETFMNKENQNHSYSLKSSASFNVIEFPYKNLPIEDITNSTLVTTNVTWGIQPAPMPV
- Sequence (P05106 27-718 limits assumed, chain 2 of 2): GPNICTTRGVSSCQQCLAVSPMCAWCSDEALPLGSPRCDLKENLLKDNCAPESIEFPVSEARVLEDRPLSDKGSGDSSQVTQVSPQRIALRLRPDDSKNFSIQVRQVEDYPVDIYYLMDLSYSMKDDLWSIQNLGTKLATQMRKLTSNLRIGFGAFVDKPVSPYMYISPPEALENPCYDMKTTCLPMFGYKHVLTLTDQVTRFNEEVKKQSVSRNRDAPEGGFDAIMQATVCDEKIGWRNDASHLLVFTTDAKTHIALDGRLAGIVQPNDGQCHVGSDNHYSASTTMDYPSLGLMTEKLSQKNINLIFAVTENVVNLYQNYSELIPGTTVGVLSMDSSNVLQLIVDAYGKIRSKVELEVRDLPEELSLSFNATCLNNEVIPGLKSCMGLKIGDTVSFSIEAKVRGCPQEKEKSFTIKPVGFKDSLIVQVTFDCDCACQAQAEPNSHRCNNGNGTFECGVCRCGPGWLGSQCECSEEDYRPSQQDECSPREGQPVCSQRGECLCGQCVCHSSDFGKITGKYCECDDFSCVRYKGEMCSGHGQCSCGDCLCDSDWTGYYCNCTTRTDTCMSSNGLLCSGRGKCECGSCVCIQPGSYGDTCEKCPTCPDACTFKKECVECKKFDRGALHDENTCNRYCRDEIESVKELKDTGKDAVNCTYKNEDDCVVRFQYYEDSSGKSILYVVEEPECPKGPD
- assay.protocol: human FP direct binding; column 'Mean', n=2
Numbered stars: 1 amine (or outer) side, 2 acyl side, 3 side chain; on linkers, the order of the positions; unused ones are H or OH. Bridge positions count the residues as written; N and C are the ends. Square brackets hold non-standard residues; d marks the D form. Ends that are not written are not given here. TBMB = c1c(C[*:1])cc(C[*:3])cc1C[*:2]; Fl = fluorescein; Sar = CNCC(=O)O

- binder: "Ac-CILRPNCDLDGRCA[Sar][Sar][Sar][Sar][Sar][Sar]K (linker 1-7-13 via TBMB; not fully specified (residue 21); also: Fl on the C-terminal K, Fluorescent bicyclic peptide) [BCY2577]"
  Kd (nM): 2
- binder: "Fl-G[Sar][Sar][Sar][Sar][Sar]ACLDHMECRGDMDC (linker 8-14-20 via TBMB, Fluorescent bicyclic peptide) [BCY2573]"
  Kd (nM): 1
